- System: MCF7
- ASSAY DETAILS: Cytotoxic activity against human MCF7 cells assessed as cell viability at 10 uM after 24 hrs by trypan blue exclusion method
- Type: functional
- CONDITION INFO: MCF7, 24 h, read-out: Activity
MEASURE: viability at 10 µM

Examples with answers:
[[record]]
sample_smiles = "C[C@]12CC[C@H]3[C@@H](CC=C4C[C@@H](O)CC[C@@]43C)[C@@H]1CC[C@@H]2C(=O)C#Cc1ccc(F)cc1"
measure = "viability at 10 µM"
reported = "90.4%"

[[record]]
sample_smiles = "C#Cc1cccc(C#CC(=O)[C@H]2CC[C@H]3[C@@H]4CC=C5C[C@@H](O)CC[C@]5(C)[C@H]4CC[C@]23C)c1"
measure = "viability at 10 µM"
reported = "0%"

[[record]]
sample_smiles = "C[C@]12CC[C@H]3[C@@H](CC=C4C[C@@H](O)CC[C@@]43C)[C@@H]1CC[C@@H]2C(=O)C#Cc1ccccc1C(F)(F)F"
measure = "viability at 10 µM"
reported = "18.9%"


State the recorded viability at 10 µM for this entry: "C[C@]12CC[C@H]3[C@@H](CC=C4C[C@@H](O)CC[C@@]43C)[C@@H]1CC[C@@H]2C(=O)C#Cc1cccc(C(F)(F)F)c1"
94.2%

* * *

- System: A549
- ASSAY DETAILS: Cytotoxic activity against human A549 cells after 48 hrs by MTT assay
- Type: functional, cell-based
- CONDITION INFO: A549, 48 h
Provide the recorded pIC50 for the entries that follow.
One number for each entry, as −log10 of the molar value.

Examples with answers:
[[record]]
sample_smiles = "C[C@]12CC[C@H]3[C@@H](CC=C4C[C@@H](O)CC[C@@]43C)[C@@H]1CC[C@@H]2C(=O)C#Cc1ccc(F)cc1"
system_under_test = "A549"
reported = 4.39

[[record]]
sample_smiles = "Cc1cc(C#CC(=O)[C@H]2CC[C@H]3[C@@H]4CC=C5C[C@@H](O)CC[C@]5(C)[C@H]4CC[C@]23C)ccc1F"
system_under_test = "A549"
reported = 4.55

[[record]]
sample_smiles = "COc1ccc(C#CC(=O)[C@H]2CC[C@H]3[C@@H]4CC=C5C[C@@H](O)CC[C@]5(C)[C@H]4CC[C@]23C)c(C)c1"
system_under_test = "A549"
reported = 4.52


Report pIC50 for every entry below.
1. C[C@]12CC[C@H](O)CC1=CC[C@@H]1[C@@H]2CC[C@]2(C)C(=O)CC[C@@H]12
2. C#Cc1cccc(C#CC(=O)[C@H]2CC[C@H]3[C@@H]4CC=C5C[C@@H](O)CC[C@]5(C)[C@H]4CC[C@]23C)c1

4.32
4.69
